# experimentalTarget: Bcl-2-like protein 1 (Homo sapiens) (UniProt Q07817)
# Sequence (Q07817 whole entry, looked up): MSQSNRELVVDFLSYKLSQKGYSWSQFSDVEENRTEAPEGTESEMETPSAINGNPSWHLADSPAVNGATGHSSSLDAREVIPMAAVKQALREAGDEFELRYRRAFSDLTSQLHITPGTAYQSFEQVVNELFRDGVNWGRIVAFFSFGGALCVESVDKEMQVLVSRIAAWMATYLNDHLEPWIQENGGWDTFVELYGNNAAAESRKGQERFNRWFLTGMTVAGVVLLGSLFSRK
# experimentDescription: inhibitors of Bim-Bcl-XL binding, primary screen, biochemical, multiplexed, bead flow cytometry, human Bcl-XL (AID 1007)
# runParameters: Bim peptide-Bcl-XL binding, fluorescence, at 10 µM, stronger effect = higher value
About 80 (0.04%) of roughly 190,000 compounds were called active. Only a sample is shown.
measuredQuantity: inhibition (%)
# value in %; strip the unit string

Record Cc1ccc(NC(=O)Nc2nnc(-c3ccncc3)s2)cc1 . Reported inhibition: -2

Record C#Cc1ccc([C@@H]2C=C(C(=O)O)O[C@H](OCCCCO)C2)cc1 . Reported inhibition: -4

Record Cc1ccc(-c2nn(-c3cccc(F)c3)cc2CNCCc2ccncc2)o1 . Reported inhibition: -2

Record CCOC(=O)N1CCN(C(=O)c2ccccc2N(Cc2ccccc2)S(=O)(=O)c2ccc(OC)cc2)CC1 . Reported inhibition: 0

Record Cc1nnc(SCC(=O)NNC(=O)c2ccc(Cl)cc2)n1CC1CCCO1 (stereo not drawn) . Reported inhibition: -6

Record O=C(CSc1ccccc1F)NC1CCS(=O)(=O)C1 (stereo not drawn) . Reported inhibition: 0

Record O=C(N/N=C/c1ccccc1O)/C(=C/c1ccccc1)CCO . Reported inhibition: -10

Record CN1CCN(C(CNS(=O)(=O)c2cccs2)c2cccnc2)CC1 (stereo not drawn) . Reported inhibition: 0

Record Cc1ccnc2nc(C(=O)OCC(=O)N(CC(C)C)CC(C)C)nn12 . Reported inhibition: -7

Record Cc1c(C(=O)NCCN2C(=O)S/C(=C\c3cccs3)C2=O)cccc1[N+](=O)[O-] . Reported inhibition: -6

Record CC(C)(C)NC(=O)COC(=O)c1cc(Br)ccc1Cl . Reported inhibition: -9

Record CC[N+]1(CC)CC2=Cc3ccccc3CC2C1 (stereo not drawn) . Reported inhibition: -4

Record Cc1ccccc1N(C(=O)Cc1cccs1)C(C(=O)NC1CCCCC1)c1cn(C)nc1C (stereo not drawn) . Reported inhibition: -5

Record O=C(Nc1ccccc1-c1ccccc1)c1cccs1 . Reported inhibition: -3

Record O=C1COc2ccc(C(=O)COC(=O)c3cccnc3Cl)cc2N1 . Reported inhibition: -3

Record CSc1ccccc1NC(=O)Cc1ccc(Br)cc1 . Reported inhibition: -4

Record Cc1ccccc1CN(c1ccc(C(=O)NCC2CCCO2)cc1)S(C)(=O)=O (stereo not drawn) . Reported inhibition: -6

Record S=C(NCC1CCCO1)N1CCN(c2ccc(Cl)c(Cl)c2)CC1 (stereo not drawn) . Reported inhibition: -1

Record Cc1cccc(NC(=O)c2cccc(C(F)(F)F)c2)c1 . Reported inhibition: -3

Record CC(=O)OC(COc1ccc(F)cc1)Cn1cnc2ccccc21 (stereo not drawn) . Reported inhibition: -4

Record CN(C)C(CNC(=O)Cc1ccc([N+](=O)[O-])cc1)c1ccccc1 (stereo not drawn) . Reported inhibition: -1

Record CCCN(CC(=O)Nc1ccccc1C)C(=O)c1cc(=O)[nH]c2ccccc12 . Reported inhibition: 2

Record COc1ccc2ccccc2c1CNc1nnnn1C . Reported inhibition: 1

###

# experimentalTarget: Bcl-2-like protein 1 (Homo sapiens)
# experimentDescription: inhibitors of Bim-Bcl-XL binding, primary screen, biochemical, multiplexed, bead flow cytometry, human Bcl-XL (AID 1007)
# runParameters: Bim peptide-Bcl-XL binding, fluorescence, at 10 µM, stronger effect = higher value
Hit rate of the full screen: of about 190,000 compounds, about 80 (0.04%) were called active. These entries were drawn from the full list.
Assign inhibition to each entry below.
# value in %; strip the unit string

Record Cc1ccc(NC(=O)Cn2cccc2C2=NC(c3ccccc3)CO2)c(C)c1 (stereo unspecified) . Reported inhibition: -2

Record CCc1ccc(-c2cc(C(=O)NN3CCN(C)CC3)c3ccccc3n2)cc1 . Reported inhibition: -6

Record CCOC(=O)c1ccc(NC(=O)C2CC(=O)Nc3nc4ccccc4n32)cc1 (stereo unspecified) . Reported inhibition: 2

Record COc1ccc(CNC(=O)CCCn2nc(C)c([N+](=O)[O-])c2C)cc1 . Reported inhibition: -4

Record COc1ccc(NC(=O)COc2ccc(C(=O)OCC(=O)N(C)C3CCS(=O)(=O)C3)cc2OC)cc1 (stereo unspecified) . Reported inhibition: -2

Record O=C1NC(c2ccccc2)CCC1(Cl)Cl (stereo unspecified) . Reported inhibition: -5

Record O=C(OCC(=O)N1CCOCC1)c1ccc(N2CCOCC2)c([N+](=O)[O-])c1 . Reported inhibition: 1

Record O=C(COC(=O)Cc1ccc(F)cc1)Nc1cc(S(=O)(=O)N2CCOCC2)ccc1N1CCCC1 . Reported inhibition: -11

Record Cc1nc(S(=O)(=O)c2ccc(Br)cc2)nc2c1CCC2 . Reported inhibition: 0

Record CCC(CC)c1nnc(NC(=O)/C=C/c2ccco2)s1 . Reported inhibition: -8

Record CCOC(=O)NC(=O)CSc1nnc(SCCC(=O)O)s1 . Reported inhibition: -10
